// provenance: patent US20220213070A1

Measured parameter: IC50

Prompt: State IC50 on TDG (Homo sapiens). Entry: O=C(CCN1Cc2ccccc2C1)c1ccc2c(c1)OCCO2
Completion: ≤ 5 µM

Prompt: State IC50 on TDG (Homo sapiens). Entry: O=C(CCN1C(=O)c2ccccc2C1=O)c1ccc2c(c1)OCCO2
Completion: > 5 µM

Prompt: State IC50 on TDG (Homo sapiens). Entry: Cc1ccc(C2CCN(CCC(=O)c3ccc4c(c3)OCCO4)C2)cc1 (centres unmarked)
Completion: ≤ 5 µM

Prompt: State IC50 on TDG (Homo sapiens). Entry: O=C(CCN1CCc2ccccc2C(O)(c2ccc(F)cc2)C1)c1ccc2c(c1)C(=O)CCO2 (centres unmarked)
Completion: ≤ 5 µM

Prompt: State IC50 on TDG (Homo sapiens). Entry: O=C(CCN1CCC(c2ccc(F)c(O)c2)C1)c1ccc2c(c1)OCCO2 (centres unmarked)
Completion: ≤ 5 µM

###

pIC50: −log10 of the molar value.
# pIC50 per entry for TDG (Homo sapiens, UniProt Q13569)

Prompt: Indicate the recorded pIC50 value for this compound: O=C(CCCN1Cc2ccccc2C1)c1ccc2c(c1)OCCO2
Completion: < 5.30

Prompt: Indicate the recorded pIC50 value for this compound: O=C(CCN1Cc2ccc([N+](=O)[O-])cc2C1)c1ccc2c(c1)OCCO2
Completion: ≥ 5.30

Prompt: Indicate the recorded pIC50 value for this compound: O=C(CCN1CCC(=O)c2ccccc21)c1ccc2c(c1)OCCO2
Completion: < 5.30

Prompt: Indicate the recorded pIC50 value for this compound: O=C(CCN1Cc2ccccc2C1)c1ccc2c(c1)SCCO2
Completion: < 5.30

Prompt: Indicate the recorded pIC50 value for this compound: O=C(CCN1CCC(c2ccc(Br)cc2)C1)c1ccc2c(c1)OCCO2 (centres unmarked)
Completion: ≥ 5.30

###

Target: TDG (Homo sapiens, UniProt Q13569)
Sequence (Q13569 whole entry): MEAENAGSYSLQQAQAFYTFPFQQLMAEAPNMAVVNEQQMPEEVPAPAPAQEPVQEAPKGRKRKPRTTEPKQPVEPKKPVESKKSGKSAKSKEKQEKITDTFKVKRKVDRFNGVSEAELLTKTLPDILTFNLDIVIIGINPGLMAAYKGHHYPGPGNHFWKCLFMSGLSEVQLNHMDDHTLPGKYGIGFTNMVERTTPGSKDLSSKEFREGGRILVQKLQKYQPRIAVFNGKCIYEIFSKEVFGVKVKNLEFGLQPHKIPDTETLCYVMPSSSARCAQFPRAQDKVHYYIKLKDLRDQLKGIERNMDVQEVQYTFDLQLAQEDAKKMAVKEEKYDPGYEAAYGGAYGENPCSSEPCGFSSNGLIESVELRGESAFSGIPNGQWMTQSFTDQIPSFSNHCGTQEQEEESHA
Experiment: Inhibition of TDG mismatch repair activity (fluorescent G·U double-stranded DNA probe T1-T2)
Format: biochemical
Settings: TDG 100 nM/L, preincubated with compound 37° C. 30 minutes; probe 30 nM; read-out: Inhibitory activity on TDG mismatch repair IC50
pIC50: −log10 of the molar value.
I'd be grateful if you could share measured pIC50 for these entries.

Prompt: State pIC50 on TDG (Homo sapiens, UniProt Q13569). Entry: O=C(CCN1CCc2ccccc2C(O)(c2ccc(F)cc2)C1)c1ccc2c(c1)OCCO2 (stereo not shown) [Compound 53]
Completion: ≥ 5.30

Prompt: State pIC50 on TDG (Homo sapiens, UniProt Q13569). Entry: O=C1CCN(CCC(=O)c2ccc3c(c2)OCCO3)C1 [Compound 17]
Completion: ≥ 5.30

Prompt: State pIC50 on TDG (Homo sapiens, UniProt Q13569). Entry: COc1ccc(C(=O)CCN2Cc3ccccc3C2)cc1OC [Compound 38]
Completion: < 5.30

Prompt: State pIC50 on TDG (Homo sapiens, UniProt Q13569). Entry: O=C(CCN1CCOc2ccccc21)c1ccc2c(c1)OCCO2 [Compound 15]
Completion: < 5.30

###

Measured parameter: IC50

Prompt: State IC50 on TDG (Homo sapiens). Entry: O=C(CCN1CCCc2ccccc21)c1ccc2c(c1)OCCO2
Completion: > 5 µM

Prompt: State IC50 on TDG (Homo sapiens). Entry: O=C(CCN1CCC(c2ccc(Cl)cc2)C1)c1ccc2c(c1)OCCO2 (stereo not drawn)
Completion: ≤ 5 µM

Prompt: State IC50 on TDG (Homo sapiens). Entry: O=C(CCn1ncc2ccncc21)c1ccc2c(c1)OCCO2
Completion: > 5 µM

Prompt: State IC50 on TDG (Homo sapiens). Entry: O=C(CCN1C(=O)CSC1=S)c1ccc2c(c1)OCCO2
Completion: > 5 µM

Prompt: State IC50 on TDG (Homo sapiens). Entry: O=C(CCN1Cc2ccc(Cl)cc2C1)c1ccc2c(c1)OCCO2
Completion: ≤ 5 µM

Prompt: State IC50 on TDG (Homo sapiens). Entry: O=C(CCN1Cc2ccc(F)cc2C1)c1ccc2c(c1)OCCO2
Completion: ≤ 5 µM

Prompt: State IC50 on TDG (Homo sapiens). Entry: N#Cc1ccc(C2CCN(CCC(=O)c3ccc4c(c3)OCCO4)C2)cc1 (stereo not drawn)
Completion: ≤ 5 µM

Prompt: State IC50 on TDG (Homo sapiens). Entry: O=C(CCN1CCC(c2ccccc2)CC1)c1ccc2c(c1)OCCO2
Completion: ≤ 5 µM

Prompt: State IC50 on TDG (Homo sapiens). Entry: O=C(CCN1Cc2ccccc2C1)c1ccc(O)c(O)c1
Completion: > 5 µM

Prompt: State IC50 on TDG (Homo sapiens). Entry: O=C(CCN1CCC(O)(c2ccccc2)C1)c1ccc2c(c1)OCCO2 (stereo not drawn)
Completion: > 5 µM

Prompt: State IC50 on TDG (Homo sapiens). Entry: O=C(CCN1CCC(O)(c2ccc(F)cc2)C1)c1ccc2c(c1)OCCO2 (stereo not drawn)
Completion: ≤ 5 µM

Prompt: State IC50 on TDG (Homo sapiens). Entry: O=C(CCN1CCC(c2ccc(F)cc2O)C1)c1ccc2c(c1)OCCO2 (stereo not drawn)
Completion: > 5 µM
